# Protocol Description: Oral bioavailability in rat at 100 mg/kg
# Assay type: ADME, organism-based
# Condition Info: in vivo
Measurement Name: bioavailability

[[record]]
structure_string = "C[C@H]1COC2=C1C(=O)C(=O)c1c2ccc2c1CCCC2(C)C"
measurement_name = "bioavailability"
observed_measurement = "2.1%"


====

# Protocol Description: Bioavailability in beagle dog
# Type: ADME, organism-based, Canis lupus familiaris
# Condition Info: in vivo
Measurement Name: bioavailability (%)

[[record]]
structure_string = "O=C(/C=C/c1ccc(O)c(O)c1/C=C/c1ccc(O)c(O)c1)O[C@H](Cc1ccc(O)c(O)c1)C(=O)O"
measurement_name = "bioavailability"
unit_name = "%"
observed_measurement = 1.47


====

# Protocol Description: Bioavailability in rat at 100 mg/kg, ip
# Assay type: ADME, organism-based
# Condition Info: in vivo
Measurement Name: bioavailability (%)

[[record]]
compound = "C[C@H]1COC2=C1C(=O)C(=O)c1c2ccc2c1CCCC2(C)C [CRYPTOTANSHINONE]"
observed_measurement = 10.6

